Ki values, listed per item
biological target: Delta-type opioid receptor (Homo sapiens, UniProt P41143); assay: Displacement of [3H]-DPDPE from human delta opioid receptor expressed in CHO-K1 cells by radioligand binding assay
Sequence (P41143 whole entry): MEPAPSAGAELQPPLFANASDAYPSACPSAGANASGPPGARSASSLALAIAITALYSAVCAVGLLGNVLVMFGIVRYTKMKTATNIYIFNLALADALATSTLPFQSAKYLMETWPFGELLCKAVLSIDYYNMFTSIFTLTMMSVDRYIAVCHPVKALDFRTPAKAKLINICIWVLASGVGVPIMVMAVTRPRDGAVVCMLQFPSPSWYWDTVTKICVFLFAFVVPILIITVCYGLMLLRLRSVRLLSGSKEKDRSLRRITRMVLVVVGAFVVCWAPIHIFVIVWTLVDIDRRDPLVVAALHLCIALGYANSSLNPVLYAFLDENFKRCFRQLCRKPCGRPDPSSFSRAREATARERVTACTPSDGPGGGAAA
Measured Attribute: Ki (µM)

compound=C/C=C1/CN2CC[C@@]34c5cc(O)ccc5N(C)[C@]35OC[C@@]4(C(=O)OC)[C@H]1C[C@H]25 assayed_target="Delta-type opioid receptor (Homo sapiens, UniProt P41143)" measured_attribute=Ki measured_value=10.4
compound=C/C=C1/CN2CC[C@]34C(=Nc5ccccc53)[C@@H]2C[C@@H]1[C@@]4(COC(C)=O)C(=O)OC assayed_target="Delta-type opioid receptor (Homo sapiens, UniProt P41143)" measured_attribute=Ki measured_value=60.3
compound=C/C=C1/CN2CC[C@@]34c5ccccc5N(C)[C@]35OC[C@@]4(C(=O)OC)[C@H]1C[C@H]25 assayed_target="Delta-type opioid receptor (Homo sapiens, UniProt P41143)" measured_attribute=Ki measured_value=8.37
compound="C/C=C1/CN2CC[C@]34C(=C(C(=O)OC)[C@H]1C[C@H]23)Nc1ccccc14 [AKUAMMICINE]" assayed_target="Delta-type opioid receptor (Homo sapiens, UniProt P41143)" measured_attribute=Ki measured_value=23.2
compound=C/C=C1/CN2[C@H]3Cc4c([nH]c5ccccc45)[C@@H]2C[C@@H]1[C@]3(CO)C(=O)OC assayed_target="Delta-type opioid receptor (Homo sapiens, UniProt P41143)" measured_attribute=Ki measured_value=15
compound=C/C=C1/CN2[C@@H]3C[C@@]45c6ccccc6N[C@]4(O3)[C@@H]2C[C@@H]1[C@@]5(COC(C)=O)C(=O)OC assayed_target="Delta-type opioid receptor (Homo sapiens, UniProt P41143)" measured_attribute=Ki measured_value=98.8

* * *

Measurement record for Kappa-type opioid receptor (Homo sapiens, UniProt P41145); quantity recorded: Ki.
Measured Attribute: Ki (µM)

compound=C/C=C1/CN2CC[C@]34C(=Nc5ccccc53)[C@@H]2C[C@@H]1[C@@]4(COC(C)=O)C(=O)OC assayed_target="Kappa-type opioid receptor (Homo sapiens, UniProt P41145)" measured_attribute=Ki uom=µM measured_value=1.11
compound=C/C=C1/CN2[C@@H]3C[C@@]45c6ccccc6N[C@]4(O3)[C@@H]2C[C@@H]1[C@@]5(COC(C)=O)C(=O)OC assayed_target="Kappa-type opioid receptor (Homo sapiens, UniProt P41145)" measured_attribute=Ki uom=µM measured_value=2.38
compound=C/C=C1/CN2[C@H]3Cc4c([nH]c5ccccc45)[C@@H]2C[C@@H]1[C@]3(CO)C(=O)OC assayed_target="Kappa-type opioid receptor (Homo sapiens, UniProt P41145)" measured_attribute=Ki uom=µM measured_value=14.2
compound="C/C=C1/CN2CC[C@]34C(=C(C(=O)OC)[C@H]1C[C@H]23)Nc1ccccc14 [AKUAMMICINE]" assayed_target="Kappa-type opioid receptor (Homo sapiens, UniProt P41145)" measured_attribute=Ki uom=µM measured_value=0.089

* * *

target: Kappa-type opioid receptor (Mus musculus, UniProt P33534); test: Agonist activity at mouse FLAG-tagged kappa opioid receptor expressed in HEK293 cells assessed as inhibition of forskolin-induced cAMP production preincubated for 20 mins followed by forskolin stimulation and measured after 15 mins by Glo-sensor reagent based assay
Sequence (P33534 whole entry): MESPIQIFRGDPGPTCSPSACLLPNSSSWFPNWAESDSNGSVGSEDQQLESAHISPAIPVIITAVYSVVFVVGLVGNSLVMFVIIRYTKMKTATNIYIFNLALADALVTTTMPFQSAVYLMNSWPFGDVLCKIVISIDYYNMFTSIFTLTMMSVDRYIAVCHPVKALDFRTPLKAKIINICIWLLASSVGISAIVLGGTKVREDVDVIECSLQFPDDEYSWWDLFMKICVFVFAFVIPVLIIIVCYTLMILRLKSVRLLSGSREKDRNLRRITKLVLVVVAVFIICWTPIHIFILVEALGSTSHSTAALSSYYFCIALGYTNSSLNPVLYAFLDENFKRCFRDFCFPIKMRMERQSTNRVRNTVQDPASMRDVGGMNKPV
Recorded IC50 values for a group of molecules are listed next.
Measured Attribute: IC50 (nM)

molecule=C/C=C1/CN2CC[C@@]34c5ccccc5N(C)[C@]35OC[C@@]4(C(=O)OC)[C@H]1C[C@H]25 uom=nM measured_value=6460
molecule=C/C=C1/CN2CC[C@@]34c5cc(O)ccc5N(C)[C@]35OC[C@@]4(C(=O)OC)[C@H]1C[C@H]25 uom=nM measured_value=73
molecule=C/C=C1/CN2CC[C@]34C(=Nc5ccccc53)[C@@H]2C[C@@H]1[C@@]4(COC(C)=O)C(=O)OC uom=nM measured_value=2710
molecule=C/C=C1/CN2[C@@H]3C[C@@]45c6ccccc6N[C@]4(O3)[C@@H]2C[C@@H]1[C@@]5(COC(C)=O)C(=O)OC uom=nM measured_value=1970
molecule="C/C=C1/CN2CC[C@]34C(=C(C(=O)OC)[C@H]1C[C@H]23)Nc1ccccc14 [AKUAMMICINE]" uom=nM measured_value=240
